# ASSAY_PROTOCOL: LC-MS quantification of aTC in fecal pellets
# Assay type: in vivo, mice
# TEST_CONDITIONS: Swiss Webster, mouse, faeces, oral; fecal pellets, gnotobiotic mice with wildtype B. thetaiotaomicron, 100 μg/mL in drinking water for 4 days; read-out: half-life in vivo (converted)

# MOLECULE, half-life [min]
measured = [
    ("Cc1c2c(c(O)c3c(O)cccc13)C(=O)[C@]1(O)C(=O)C(C(N)=O)=C(O)[C@@H](N(C)C)[C@@H]1C2 [aTC, Anhydrotetracycline]", 1140),
]
